- TEST_TARGET: T1, Human α-parvin-CHC (residues 242–372) (human, UniProt Q9NVD7 242-372)
- T1 construct: α-parvin, human, second CH domain (CHC), residues 242-372; Purification and fate of the GST are told only in the Supplementary Material and in the cited work (Lorenz et al., 2008); also called second CH domain of α-parvin; source: E. coli BL21, expressed as GST-fusion protein
- T1 sequence (looked up): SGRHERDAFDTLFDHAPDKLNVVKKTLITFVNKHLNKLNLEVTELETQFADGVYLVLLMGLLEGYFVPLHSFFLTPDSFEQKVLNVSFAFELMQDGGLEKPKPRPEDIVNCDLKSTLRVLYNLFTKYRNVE
- TEST_DETAILS: fluorescence polarisation + MST + ITC + other: differential scanning fluorimetry; synthesized peptides against recombinant LDBDs in vitro; direct anisotropy with labelled candidate peptides, anisotropy competition of unlabelled peptides against fluorescently labelled known LD motifs, ITC, MST and DSF summed up together; 25°C, 20 mM HEPES pH 7.5, 150 mM NaCl, 2 mM EDTA, 1 mM TCEP, unless stated otherwise
- EXPERIMENTAL_CONDITIONS: both partners purified
Where no end group is shown, it is not given here.
METRIC: binding result

>>> meas_value("AEIDSLTSILADLESS (also: N-terminal FITC-Ahx only in labelled form, predicted LD motif of human LPP (Lipoma-preferred partner); source: synthetic peptide, bought: GenScript) [LPP (Lipoma-preferred partner) LD motif peptide]")
"binds"
>>> meas_value("ATDELDALLASLTENLID (also: N-terminal FITC-Ahx only in labelled form, predicted LD motif of human EPB41L5 (Band 4.1-like protein 5); also called E41L5; YMO1; source: synthetic peptide, bought: GenScript) [EPB41L5 (Band 4.1-like protein 5) LD motif peptide]")
"binds"
>>> meas_value("EDVLDELLQYLGVT (also: N-terminal FITC-Ahx only in labelled form, predicted LD motif of human RALGAPA1; also called RGPA1; source: synthetic peptide, bought: GenScript) [RALGAPA1 LD motif peptide]")
"binds"
>>> meas_value("EAWDLDDILQSLQGQ (also: N-terminal FITC-Ahx only in labelled form, predicted LD motif of human C16orf71; also called CP071; source: synthetic peptide, bought: GenScript) [C16orf71 LD motif peptide]")
"binds"
